Experiment: Components of the Cytosolic LPS Sensing Pathway: Gene Identification via Genome-wide siRNA Screen;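 further: robust z of the log signal after scaling to non-targeting control siRNA wells of the plate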
Conditions: RAW264.7 macrophages, IL-1a HTRF, actives lie on both sides, screened at 100 nM (by protocol), cells primed 5 h with Pam3CSK4 first
Experimental: Non-canonical inflammasome activation by cytosolic LPS is a critical component of the host response to Gram-negative bacterial infection, however we lack a comprehensive understanding of the cellular processes that control this pathway. […] Lipofectamine RNAiMAX Transfection Reagent ([…]; Invitrogen) was added in […] serum-free, antibiotic-free media to plate wells using a Thermo Scientific Matrix WellMate and Microplate Stacker. […] The plates were read on an EnVision plate reader (PerkinElmer). […]
Hit rate of the full screen: of about 53,000 sequences, about 3,700 (7%) were called active. The sample as a whole holds a higher share of actives than the screen did.
Note to self: z-score under 0.4 means yes (1), ties and anything higher get no (0).

**Q:** Does the reported z-score of the following sequence sit strictly below 0.4? GCUCUUGAUGUUUAGAGUUTT against Usp17lf
**A:** yes (1)

**Q:** Quick check: z-score of GGAAGAGGUGAAUGAUAAATT against Bmi1 under 0.4?
**A:** no (0)

**Q:** Is z-score of GCACGACUACUUCUCAAAUTT against Prpf6 strictly below 0.4?
**A:** yes (1)

----------
Experiment: Components of the Cytosolic LPS Sensing Pathway: Gene Identification via Genome-wide siRNA Screen;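 further: robust z of the log signal after scaling to non-targeting control siRNA wells of the plate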
Settings: RAW264.7 macrophages, IL-1a HTRF, actives lie on both sides, screened at 100 nM (by protocol), cells primed 5 h with Pam3CSK4 first
Procedure: Non-canonical inflammasome activation by cytosolic LPS is a critical component of the host response to Gram-negative bacterial infection, however we lack a comprehensive understanding of the cellular processes that control this pathway. […] Lipofectamine RNAiMAX Transfection Reagent ([…]; Invitrogen) was added in […] serum-free, antibiotic-free media to plate wells using a Thermo Scientific Matrix WellMate and Microplate Stacker. […] The plates were read on an EnVision plate reader (PerkinElmer). […]
Among all 53,000 sequences or so, about 3,700 (7%) were called active. Only a selection was taken, and actives are over-represented in it overall.
Listing of entries alongside the reported z-score.
// return a plain number; no unit text

Recorded z-score, per entry:
{"INPUT_SEQUENCE": "GCUAGAGUACAGCAAGCUGTT against Aifm3", "z-score": 1.21}
{"INPUT_SEQUENCE": "CGACCACAUGAGGAUGCAUTT against Zbtb20", "z-score": -0.974}
{"INPUT_SEQUENCE": "GGGCCACUUUCCAAUUCAATT against Tectb", "z-score": 0.817}
{"INPUT_SEQUENCE": "GCAUAAGGACCCUUUGUCATT against Rasl10b", "z-score": -1.27}

**Q:** Please list z-score recorded for the sequence GCCAAUAAUCCACAGGCAATT against Ryk
**A:** -0.577

**Q:** Check the records and state z-score for CCUGAUCAUGUUGAAGGAATT against Ktn1
**A:** 0.256

**Q:** Find the measured z-score of GCGAGUGACACAUCUUCUCTT against Klhl7 and report it.
**A:** 0.467

**Q:** Input GGCUCAAUAAAAUGAAGUGTT against Elovl2 , output reported z-score.
**A:** 2.03

**Q:** Retrieve z-score measured for GGUAGAUAACCUGAUUUAUTT against Slc7a6 and print it.
**A:** 2.22

**Q:** Identify measured z-score associated with GGACUUGAAGAUGUACCAGTT against Il12a
**A:** 0.427

**Q:** Annotate the sequence GGUUGUAACUUGUAAGGCATT against Rnf144b with its measured z-score.
**A:** 0.123

**Q:** Indicate its recorded z-score; the sequence in question is GGACCCAGAUGUGACUGAGTT against Svil
**A:** 0.242

----------
Assay: Components of the Cytosolic LPS Sensing Pathway: Gene Identification via Genome-wide siRNA Screen;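 further: robust z of the log signal after scaling to non-targeting control siRNA wells of the plate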
Conditions: RAW264.7 macrophages, IL-1a HTRF, actives lie on both sides, screened at 100 nM (by protocol), cells primed 5 h with Pam3CSK4 first
The campaign covered roughly 53,000 sequences. About 3,700 (7%) were called active.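 How the source made its calls: active means gene knockdowns whose robust z-score for IL-1 alpha signal is at least 2 or at most -2, so actives lie on both sides; inactive means the rest.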 The full list was thinned out, with actives kept by preference.
# valid calls are active, inactive; nothing else

{"INPUT_SEQUENCE": "GCACCUGACAGAUACUUCCTT against Ints4", "CATEGORY": "active"}
{"INPUT_SEQUENCE": "GCCUUCUGAGAUAGUAGAUTT against Zcchc17", "CATEGORY": "inactive"}
{"INPUT_SEQUENCE": "GGAGCUCUCAUCCUACUAUTT against Eif4ebp3", "CATEGORY": "inactive"}

**Q:** What is the recorded call for this sequence in the test? GGGUACCUCGUGGUACAUUTT against Rapgef3
**A:** inactive

----------
Assay: Components of the Cytosolic LPS Sensing Pathway: Gene Identification via Genome-wide siRNA Screen;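 further: robust z of the log signal after scaling to non-targeting control siRNA wells of the plate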
Settings: RAW264.7 macrophages, IL-1a HTRF, actives lie on both sides, screened at 100 nM (by protocol), cells primed 5 h with Pam3CSK4 first
Out of some 53,000 sequences screened, about 3,700 (7%) were called active. This is one part of a sample in which actives are shown more often than they occur.
Okay, here is how we bin by z-score: bottom range = under -0.9, center range = from -0.9 up to 0.7, top range = 0.7 and over

Previously resolved entries follow.
{"INPUT_SEQUENCE": "GGAAGCGUGGAAGUCUACGTT against Kcnj16", "CATEGORY": "center range"}
{"INPUT_SEQUENCE": "GCGUGAGCUUAAGAAGCAATT against Leng8", "CATEGORY": "top range"}
{"INPUT_SEQUENCE": "GCACCAUGAAUUCUAUUGCTT against Kcnmb1", "CATEGORY": "center range"}
{"INPUT_SEQUENCE": "CGAUGAUAAAACGAACAAGTT against Plppr5", "CATEGORY": "top range"}
{"INPUT_SEQUENCE": "GCAGGUGAAAGUGCAGAUCTT against Timm13", "CATEGORY": "top range"}
{"INPUT_SEQUENCE": "GGCCAUUGAUCAAGACAAGTT against Glyat", "CATEGORY": "top range"}
{"INPUT_SEQUENCE": "GGACCGUAUCCCAAAAGAUTT against Klf1", "CATEGORY": "bottom range"}
{"INPUT_SEQUENCE": "GGGCAGCAUCGGACUAAAUTT against Agtr1a", "CATEGORY": "top range"}
{"INPUT_SEQUENCE": "GGCCUAUAGGUUGGGCUCUTT against Tonsl", "CATEGORY": "bottom range"}
{"INPUT_SEQUENCE": "CCAAAGGUAUGCAGUAUGATT against Cdh4", "CATEGORY": "center range"}

**Q:** Category lookup for the sequence CACUGAACAGAUCAGAGCATT against Fam189b
**A:** bottom range

**Q:** Returns: class label. Input: GGAAAACUACUAAAAAGUCTT against Zfp938
**A:** center range

**Q:** Kindly identify the class of GGUGAAGAGGAAGAUCCUGTT against Ctdnep1 .
**A:** center range

**Q:** Kindly identify the class of GGGAAUGGGUCUUGUAAACTT against Ppat .
**A:** bottom range

**Q:** Consider CCACUAAAAUCUUACUGGATT against Scn7a . To which z-score class does it belong?
**A:** center range

**Q:** The entry to classify is CGAGCUUUCACUGCUACAGTT against Ppargc1b ; which class holds it?
**A:** bottom range

**Q:** Form: Item = GCAGGUCCUGACCUAUGUGTT against Cyp27b1 ; Class = ?
**A:** center range

**Q:** Class for GCUAACACUGCGCUUGGAATT against 1700067K01Rik ?
**A:** bottom range

**Q:** Using the reported z-score, which band applies to GGUCUUUGCUACCAACCUGTT against Fignl1 ?
**A:** bottom range

**Q:** Class? Entry: GGUUUGAUUAUACCUAUCATT against Tenm2
**A:** center range

**Q:** Entry CGGGAUCUUAGAAGAGCAATT against Ptpre belongs to which category?
**A:** top range

**Q:** Hello team, could you let me know which band the following sequence falls into: GGGACUUAUGUCCAGGAAGTT against Agap3
**A:** bottom range

**Q:** Form field 'band' for GGCGUAAACAUGGUGUGCATT against Taok3
**A:** center range

**Q:** Kindly state the category for this sequence: CGGAUUCGUCUGUUUUCUGTT against Ddi2
**A:** top range

**Q:** Lab note: sort GGAUCAAUGAAAAUGAGAATT against Fzr1 into the matching z-score band.
**A:** center range

**Q:** Which category does the recorded z-score put GCCUUCUUGAACUGAAAGATT against Spc24 in?
**A:** bottom range

**Q:** Could you place GGUGGUGGAAUGCUAAAAATT against Gys1 in its proper category? Many thanks.
**A:** top range

**Q:** Which bin should I file CCUCUGUGAUUUCAUUCUUTT against Hhip under?
**A:** bottom range

**Q:** Dear colleague, I would appreciate it if you could identify the bin for GGAGUACAUGACCACAGAUTT against Lncpint and reply at your convenience.
**A:** bottom range

**Q:** For the record CCACCGAAAUCCUUAUUUUTT against Ppargc1a , report the class its z-score corresponds to.
**A:** center range

**Q:** The entry to classify is GCGAAAGACGAUCAAAACCTT against Scn1a ; which class holds it?
**A:** top range
